B1: Azoarcus group I ribozyme (parent)
chain: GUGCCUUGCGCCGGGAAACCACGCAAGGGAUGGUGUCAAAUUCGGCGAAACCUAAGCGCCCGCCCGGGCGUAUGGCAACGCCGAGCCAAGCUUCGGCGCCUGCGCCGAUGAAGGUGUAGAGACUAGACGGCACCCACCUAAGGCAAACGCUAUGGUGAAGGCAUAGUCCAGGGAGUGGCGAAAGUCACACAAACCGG

variants of: B1; test: reverse-splicing fitness (ratio to wild type); higher = more active; in vitro selection; Mg2+ level not given
I'd appreciate it if you could supply reverse-splicing fitness values for the items below.
Please give only the number in your answer, with no unit.

Form field: reported reverse-splicing fitness of C82G A111C A120G C150G U176A
0.00843

// next record A111G A120U A145U C169U U176C
0.032

// next record C82U A111U A120C A145U C150U U176A
0.0114

// next record C82G A111C A120C C150U C169U
0.0139

// next record C82A C150A C169U U176G
0.00672

// next record A145U C150G C169A U176A
0.0122

// next record C82A A111U A145U C150G C169A U176A
0.0106

// next record A120G A145U C150G C169A U176A
0.0196

// next record C82A A111C A120U A145C U176G
0.00266

// next record C82U A120U C150U C169U U176C
0.0038
